Test system: HT29
Assay: NCI-60 anticancer screening (SRB)
Assay type: cell-based
Settings: Homo sapiens, HT-29; HT29, colon cancer; one dose 10 μM; read-out: Growth Inhibition Percentage (GI %)
Mark Criterion not met for inhibition at 10 µM values under 30%, and Criterion met for everything at or above.

Look over these answered cases.
                                   compound   class_assignment
0  CCOC(=O)C1=C(N)N(c2ccc(Cl)cc2)C2=C(C(=O)CC(C)(C)C2)C1c1ccccn1 (racemic) [12c]  Criterion not met
1  CCOC(=O)C1=C(N)N(c2ccc(Cl)cc2)C2=C(C(=O)CC(C)(C)C2)C1c1ccccc1OC (racemic)      Criterion met
2  CCOC(=O)C1=C(N)N(c2ccc(Cl)cc2)C2=C(C(=O)CC(C)(C)C2)C1c1ccc(F)cc1 (racemic)      Criterion met
3  CCOC(=O)C1=C(N)N(c2ccc(C)cc2)C2=C(C(=O)CC(C)(C)C2)C1c1ccc(Cl)cc1 (racemic)      Criterion met
4  CCOC(=O)C1=C(N)N(c2ccccc2)C2=C(C(=O)CC(C)(C)C2)C1c1ccccc1Br (racemic)  Criterion not met
5  CCOC(=O)C1=C(N)N(c2ccc(C)cc2)C2=C(C(=O)CC(C)(C)C2)C1c1ccccn1 (racemic) [12b]  Criterion not met
6  CCOC(=O)C1=C(N)N(c2ccc(Cl)cc2)C2=C(C(=O)CC(C)(C)C2)C1c1ccc([N+](=O)[O-])cc1 (racemic)  Criterion not met
7  CCOC(=O)C1=C(N)N(c2ccc(Cl)cc2)C2=C(C(=O)CC(C)(C)C2)C1c1ccc(Cl)cc1Cl (racemic) [10d]      Criterion met

Query: Hello, I need to know if CCOC(=O)C1=C(N)N(c2ccc(C)cc2)C2=C(C(=O)CC(C)(C)C2)C1c1ccc(OC)cc1 (racemic) has measured inhibition at 10 µM not below 30%. Thanks!
Response: Criterion not met

Query: Proceed to CCOC(=O)C1=C(N)N(c2ccccc2)C2=C(C(=O)CC(C)(C)C2)C1c1ccc(Cl)cc1Cl (racemic) [10c]
Response: Criterion met

----------
Tested on: SR
Assay: NCI-60 anticancer screening (SRB)
Format: cell-based
Conditions: Homo sapiens, leukemia, one dose 10 μM, read-out: Growth Inhibition Percentage (GI %)
Recorded measurements of inhibition at 10 µM, one per entry
// units = %; emit number, no label

Below, 6 compounds whose answers are already recorded.
>>> df
                                   compound  result_value
0  CCOC(=O)C1=C(N)N(c2ccccc2)C2=C(C(=O)CC(C)(C)C2)C1c1ccc(OC)cc1 (racemic)            18
1  CCOC(=O)C1=C(N)N(c2ccc(Cl)cc2)C2=C(C(=O)CC(C)(C)C2)C1c1cccc(Cl)c1Cl (racemic) [10b]            66
2  CCOC(=O)C1=C(N)N(c2ccccc2)C2=C(C(=O)CC(C)(C)C2)C1c1ccc([N+](=O)[O-])cc1 (racemic)            34
3  CCOC(=O)C1=C(N)N(c2ccccc2)C2=C(C(=O)CC(C)(C)C2)C1c1ccccn1 (racemic) [12a]            16
4  CCOC(=O)C1=C(N)N(c2ccccc2)C2=C(C(=O)CC(C)(C)C2)C1c1ccccc1Br (racemic)            14
5  CCOC(=O)C1=C(N)N(c2ccc(Cl)cc2)C2=C(C(=O)CC(C)(C)C2)C1c1ccccc1OC (racemic)            64

Query: API: value(readout=inhibition at 10 µM, system=SR) for record CCOC(=O)C1=C(N)N(c2ccc(Cl)cc2)C2=C(C(=O)CC(C)(C)C2)C1c1ccc(Cl)cc1Cl (racemic) [10d]
Response: 75
